Experiment: Plasma protein binding in Sprague-Dawley rat at 1 uM incubated for 30 mins
Assay type: ADME, cell-free
Conditions: read-out: PPB (converted)
value-kind: fraction unbound at 0.5 h, 1 µM
Lab note: write the figure by itself, no unit.

Which fraction unbound at 0.5 h, 1 µM reading was recorded for the compound Cl.c1ccc2c(c1)nnn2CCCCN1CCN(c2nsc3ccccc23)CC1 ?
0.019

----------
Test: AUC (0 to t) in female Sprague-Dawley rat at 10 mg/kg, po qd treated for 13 weeks consecutively measured after recovery period on day 91 by UP/LC/MS/MS analysis
Type: ADME, organism-based
Settings: in vivo, time 91 day
value-kind: AUC(0-t) at 2184 h (ng·h/mL)
State the answer as a number, implicitly in ng·h/mL.

Which AUC(0-t) at 2184 h reading was recorded for the compound Cl.c1ccc2c(c1)nnn2CCCCN1CCN(c2nsc3ccccc23)CC1 ?
439

----------
Test: Half life in Sprague-Dawley rat at 1 mg/kg, po measured for 24 hrs by UPLC/MS/MS analysis
Format: ADME, organism-based
Details: in vivo
value-kind: half-life (h)
State the answer as a number, implicitly in h.

Which half-life reading was recorded for the compound Cl.c1ccc2c(c1)nnn2CCCCN1CCN(c2nsc3ccccc23)CC1 ?
1.5

----------
Assay: Tmax in male Sprague-Dawley rat at 100 mg/kg, po measured on day 1 by UP/LC/MS/MS analysis
Format: ADME, organism-based
Settings: in vivo, time 1 day
value-kind: Tmax

Which Tmax reading was recorded for the compound Cl.c1ccc2c(c1)nnn2CCCCN1CCN(c2nsc3ccccc23)CC1 ?
1.3 h

----------
Assay: Tmax in Sprague-Dawley rat at 9 mg/kg, po measured for 24 hrs by UPLC/MS/MS analysis
Assay type: ADME, organism-based
Details: in vivo
value-kind: Tmax (min)
State the answer as a number, implicitly in min.

Which Tmax reading was recorded for the molecule Cl.c1ccc2c(c1)nnn2CCCCN1CCN(c2nsc3ccccc23)CC1 ?
39

----------
Experiment: Metabolic stability in human liver microsomes assessed as compound remaining at 10 umol/L incubated upto 120 mins in presence of NADPH by LC-MS/MS analysis
Type: ADME, Microsome
Conditions: dose 10 µmol/L, read-out: Stability
value-kind: remaining at 2 h, 10 µM (%)
State the answer as a number, implicitly in %.

Which remaining at 2 h, 10 µM reading was recorded for the molecule Cl.c1ccc2c(c1)nnn2CCCCN1CCN(c2nsc3ccccc23)CC1 ?
23.9

----------
Assay: Cmax in female Sprague-Dawley rat at 100 mg/kg, po measured on day 1 by UP/LC/MS/MS analysis
Format: ADME, organism-based
Conditions: in vivo, time 1 day
value-kind: Cmax
Report as: number unit

Which Cmax reading was recorded for the compound Cl.c1ccc2c(c1)nnn2CCCCN1CCN(c2nsc3ccccc23)CC1 ?
1080 ng/mL

----------
Experiment: Plasma protein binding in human at 1 uM incubated for 30 mins
Format: ADME, cell-free
Conditions: read-out: PPB (converted)
value-kind: fraction unbound at 0.5 h, 1 µM
Lab note: write the figure by itself, no unit.

Which fraction unbound at 0.5 h, 1 µM reading was recorded for the compound Cl.c1ccc2c(c1)nnn2CCCCN1CCN(c2nsc3ccccc23)CC1 ?
0.004

----------
Assay: Oral bioavailability in Sprague-Dawley rat at 3 mg/kg measured for 24 hrs by UPLC/MS/MS analysis
Type: ADME, organism-based
Conditions: in vivo
value-kind: bioavailability (%)
State the answer as a number, implicitly in %.

Which bioavailability reading was recorded for the compound Cl.c1ccc2c(c1)nnn2CCCCN1CCN(c2nsc3ccccc23)CC1 ?
31.9
